procedureSummary: basal RPMI8226 mitochondrial membrane potential changes, profiling panel, cell-based, JC-1 fluorescence, 24 h, 100 nL compound (AID 1169)
experimentalContext: RPMI8226 myeloma, JC-1 mitochondrial potential fluorescence, higher = more signal
assayMetric: z-score
Enter the number alone.

These recorded examples may help you get a feel for the data.
# smilesString, measValue
rows = [
    ("COC(=O)[C@@]1(Cc2ccc(F)cc2)[C@H]2c3cc(C(=O)N4CCCC4)n(Cc4ccc(C)o4)c3C[C@H]2CN1C(=O)c1ccccc1", -0.486),
    ("O=C(NCc1ccc(F)cc1)[C@H]1C[C@H]2C(=O)N[C@@H](Cc3ccccc3)C(=O)N2[C@H]1c1ccc(O)cc1", 0.736),
    ("O=C1c2ccccc2[C@@]2(Cc3ccccc3N(CC(F)(F)F)C2=O)[C@H](c2ccc(CO)cc2)N1Cc1ccccc1Cl", -0.131),
]

// switching to the query molecule
Req: For the molecule C=C[C@H](COC(C)=O)N(C(=O)OC(C)(C)C)S(=O)(=O)c1ccc(Br)cc1 , give its measured z-score value.
Resp: -0.931

---

procedureSummary: FRG1 promoter luciferase signal modulators, primary screen, FRG1 inhibition for FSHD, cell-based, C2C12 myotubes, firefly/Renilla luciferase, luminescence (AID 1084)
experimentalContext: higher = more signal, called active from +8 up or from −8 down
assayMetric: z-score
Response field accepts a number only; no unit should be typed.

These solved cases illustrate the format of a correct answer.
# compound, assayMetric, measValue
records = [
    ("COc1ccc([Si](C)(C)[C@H]2[C@H](CC(=O)N3Cc4ccccc4C[C@H]3CO)O[C@@]3(C(=O)N(Cc4ccc(N5CCC5=O)cc4)c4ccccc43)[C@@H]2C)cc1", "z-score", -4.57),
    ("CC1(C)[C@@H]2CC(C(O)C3C=CC4C(=O)N(c5ccccc5)C(=O)C4N3Nc3ccccc3)=C[C@H]1C2 (some centres undefined)", "z-score", -0.559),
    ("[N-]=[N+]=Nc1ccccc1C[C@]1(C(N)=O)N=C(c2ccc(OCCCO)cc2)O[C@H]1c1ccccc1", "z-score", -3.01),
]

Req: Identify z-score associated with the compound CN1C(=O)C2C=CC(C(O)C3CC=CCC3)N(NC(=O)OC(C)(C)C)C2C1=O (centres undefined)
Resp: 2.23

---

procedureSummary: binders of probe aFGF10 on microarray, primary screen, stem cell growth factor project, biochemical, small-molecule microarray, fluorescence 635/667 (AID 1071);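 further: score merges 667 nm spot intensity and signal to noise from triplicate slides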
experimentalContext: higher = more signal
assayMetric: composite z-score
Keep the answer to the number alone.

Check out these entries, answers already filled in.
# compound, measValue
data = [
    ("Cc1ccc(C(C)CC(O)C2C=CC3C(=O)N(c4ccccc4)C(=O)C3N2Nc2ccc([N+](=O)[O-])cc2)o1 (stereo unspecified)", 0.513),
    ("C=CCOC(=O)[C@H]1[C@@H]2C(=O)O[C@@H](c3ccccc3)[C@@H](c3ccccc3)N2[C@@H](c2ccc(OCCOC(=O)[C@H]3C[C@H]4C(=O)N5CCC[C@H]5C(=O)N4[C@H]3c3ccc(O)cc3)cc2)[C@]12C(=O)Nc1ccccc12", 0.516),
    ("COc1ccc(CCNC(=O)[C@@]2(Sc3ccc(C)cc3)CC(=O)N(C3CCCCC3)[C@@H]2c2ccc(CO)cc2I)cc1", 0.773),
]

With those in mind, consider the next compound.
Req: Quick one: give measured composite z-score for CCC(CC)C(O)C1C=CC2C(=O)N(C)C(=O)C2N1Nc1ccccc1 (stereo unspecified)
Resp: 0.258

---

Reported composite z-score values are given for each entry in this list.
Test system: XIP peptide (Xip251-270)
procedureSummary: small-molecule binders of XIP peptide, primary screen, biochemical, small-molecule microarray, fluorescence 635/667 nm, 0.5 µg/mL protein (AID 1183)
experimentalContext: small-molecule microarray binding, fluorescence 635 nm; higher = more signal
Simply state the number, no unit and no words.

Here is how some molecules turned out for composite z-score.
# molecule, composite z-score
rows = [
    ("C=CC[C@@]1(C(=O)NCc2ccccc2)N=C(c2ccc(OCCCO)cc2)O[C@@H]1c1ccccc1N=[N+]=[N-]", 0.764),
    ("COc1ccc([Si](C)(C)[C@H]2[C@H](CC(=O)N3Cc4ccccc4C[C@H]3CO)O[C@@]3(C(=O)N(Cc4ccc(N5CCC5=O)cc4)c4ccccc43)[C@@H]2C)cc1", 0.817),
    ("CC[C@@H]1C=C(C(=O)O)[C@H](c2ccco2)N1S(=O)(=O)c1ccc(C)cc1", -0.265),
    ("[N-]=[N+]=Nc1ccccc1C[C@@]1(C(=O)NCCN2CCOCC2)N=C(c2ccc(OCCCO)cc2)O[C@@H]1c1ccccc1", 0.827),
]

Moving on to another molecule below.
Req: Answer with reported composite z-score of CC(C)(C)OC(=O)CC[C@]1(C(=O)NCC(O)CO)COC(c2ccc(OCCCO)cc2)=N1 (stereo not given in full)
Resp: 0.151

---

procedureSummary: modulators of HCV replicon luciferase signal, primary screen, HCV replication inhibitor project, Huh7 cells, luciferase reporter (AID 1109);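 further: huh7 hepatoma cells harbouring a luciferase neomycin HCV replicon reporter; luciferase luminescence as measure of HCV replicon replication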
experimentalContext: 48 h, higher = more signal
In this section, each of the compounds is paired with its reported z-score.
The response must contain the number and no unit.

# compound, measValue
rows = [
    ("COC(=O)[C@@]1(Cc2ccc(OC)cc2)[C@H]2c3cc(C(=O)N(C)C)n(CCN4CNCC4=O)c3C[C@H]2CN1C(=O)c1ccccc1", -0.422),
]

Req: Give reported z-score value for CCc1oc(CC[C@@H](CO)NC(=O)NCCn2cc(C3(O)CCCCC3)nn2)c(C(=O)OC)c1C(=O)OC
Resp: 0.524

Req: Look up z-score of CCOC(=O)C[C@H]1[C@H](OC(=O)c2cc3ccccc3oc2=O)[C@@H](NC(=O)C2CCCCC2)c2cc(OCCCO)ccc2N1C(=O)c1ccccc1 and report it.
Resp: -0.947

---

Measured composite z-score, listed per entry.
subjectOfTest: Dickkopf-related protein 1 (Homo sapiens) (UniProt O94907)
Sequence (O94907 whole entry, looked up): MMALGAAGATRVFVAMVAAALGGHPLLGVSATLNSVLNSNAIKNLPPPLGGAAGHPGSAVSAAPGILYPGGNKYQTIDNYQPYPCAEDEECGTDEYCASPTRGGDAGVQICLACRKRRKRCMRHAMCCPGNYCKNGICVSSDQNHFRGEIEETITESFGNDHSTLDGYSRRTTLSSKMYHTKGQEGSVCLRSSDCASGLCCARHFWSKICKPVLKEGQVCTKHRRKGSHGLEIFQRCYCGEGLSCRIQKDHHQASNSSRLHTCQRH
procedureSummary: DKK1 binders on small-molecule microarrays, primary screen, biochemical, small-molecule microarray, 635 nm fluorescence scan (AID 1106);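 further: score merges emission near 667 nm with signal to noise over three replicate slides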
experimentalContext: DKK1 binding, higher = more signal
Keep the answer to the number alone.

Req: Let me know recorded composite z-score for C=CCC(OC(C)=O)[C@@H]1[C@@H](N(Cc2ccc(-c3cccc(C(F)(F)F)c3)o2)C(=O)c2ccc(-c3ccccc3)cc2)c2cc(OCCCO)ccc2N1C(=O)c1ccc(-c2ccccc2)cc1 (some centres undefined) , thanks.
Resp: -0.0545

Req: Return the recorded composite z-score value; entry: COCCOC(=O)N1C(=O)[C@@]2(c3cc(C#CC4=CCCCC4)ccc31)[C@H](C(=O)Nc1nc3ccccc3s1)[C@H]1C(=O)O[C@H](c3ccccc3)[C@H](c3ccccc3)N1[C@@H]2c1ccc(OCCO)cc1
Resp: 0.495

Req: Tell us which composite z-score value is on record for COCCCNC(=O)[C@@]1(Cc2ccccc2)N=C(c2ccc(OCCCO)cc2)O[C@H]1c1ccccc1
Resp: -0.728

Req: Answer with reported composite z-score of CCOC(=O)C[C@H]1[C@H](OC(=O)c2cc3ccccc3oc2=O)[C@@H](NC(=O)Cc2ccc(OC)cc2)c2cc(OCCCO)ccc2N1C(=O)c1ccccc1
Resp: 0.313

---

Known composite z-score of a selection of molecules
procedureSummary: small-molecule microarray binders of probe aCHRDL2, primary screen, biochemical, biotinylated probe, 635/667 nm fluorescence (AID 1100)
experimentalContext: higher = more signal
Simply state the number, no unit and no words.

Below, each entry is followed by its recorded composite z-score result.
# smilesString, composite z-score
measured = [
    ("COC(=O)[C@@]1(Cc2ccc(F)cc2)[C@H]2c3cc(C(=O)N(C)C)n(CC4CC4)c3C[C@H]2CN1C(=O)c1ccccc1", 1.41),
    ("COC(=O)[C@@]1(Cc2ccc(F)cc2)[C@H]2c3cc(C(=O)N4CCCC4)n(Cc4cc(C)n(C)n4)c3C[C@H]2CN1C(=O)c1ccccc1", 1.4),
    ("C=CCOC(=O)[C@H]1[C@@H]2C(=O)O[C@@H](c3ccccc3)[C@@H](c3ccccc3)N2[C@@H](c2ccc(OCCOC(=O)[C@H]3C[C@H]4C(=O)N5CCC[C@H]5C(=O)N4[C@H]3c3ccc(O)cc3)cc2)[C@]12C(=O)Nc1ccc(I)cc12", 1.42),
    ("[N-]=[N+]=NCc1ccccc1[C@H]1OC(c2ccc(OCCCO)cc2)=N[C@@]1(Cc1ccccc1)C(=O)NCc1ccccc1", 0.894),
]

Req: Respond only with composite z-score recorded for CC(=O)N1Cc2ccccc2C[C@@]2(COC(c3ccc(OCCCO)cc3)=N2)C1=O
Resp: 1.31

---

procedureSummary: PSAC antagonists in infected red cells, primary screen, cell-based, P. falciparum Indochina, OD700, 18 h (AID 1157)
experimentalContext: P. falciparum Indochina infected erythrocytes, osmotic lysis OD700, 18 h; higher = more signal, called active from +8 up or from −8 down
assayMetric: z-score
Enter a number only.

Consider the worked cases shown below.
# smilesString, measValue
records = [
    ("COCCOC(=O)N1C(=O)[C@@]2(c3cc(C#CC4=CCCCC4)ccc31)[C@H](C(=O)Nc1nc3ccccc3s1)[C@H]1C(=O)O[C@H](c3ccccc3)[C@H](c3ccccc3)N1[C@@H]2c1ccccc1OCCO", 0.436),
    ("COC(=O)[C@@]1(Cc2ccccc2)[C@H]2c3cc(C(=O)N4CCCC4)n(CC4CC4)c3C[C@H]2CN1C(=O)c1ccccc1", 0.69),
]

Req: Please give the documented z-score of COC(=O)[C@@]1(Cc2ccccc2)[C@H]2c3cc(C(=O)N4CCCC4)n(Cc4cccc5ccccc45)c3C[C@H]2CN1C(=O)c1ccccc1
Resp: 1.3
